# Tested on: NCI-H3122
# protocol-text: relative viability (nuclei count vs DMSO), 5 days (fraction); higher = more cells survive
# experimental-conditions: first compound 0.8 µM
measurement-name: relative viability
Please state the value as a number alone, without comment.

CCCCCCCCCCCC1=C(O)C(=O)C=C(O)C1=O [Embelin] + CC(=O)c1c(C)c2cnc(Nc3ccc(N4CCNCC4)cn3)nc2n(C2CCCC2)c1=O [Palbociclib] (partner 0.5 µM): 0.236

GET /values?readout=relative viability&item= CCCCCCCCCCCC1=C(O)C(=O)C=C(O)C1=O [Embelin] + O=C(c1cc(Cc2n[nH]c(=O)c3ccccc23)ccc1F)N1CCN(C(=O)C2CC2)CC1 [Olaparib] (partner 8 µM)
0.603

Consider the compound CCCCCCCCCCCC1=C(O)C(=O)C=C(O)C1=O [Embelin] + CC(C)C[C@H](NC(=O)[C@H](Cc1ccccc1)NC(=O)c1cnccn1)B(O)O [Bortezomib] (partner 0.002 µM) and give its measured relative viability.
1.03

relative viability lookup needed for CCCCCCCCCCCC1=C(O)C(=O)C=C(O)C1=O [Embelin] + C[C@@H](Oc1cc(-c2cnn(C3CCNCC3)c2)cnc1N)c1c(Cl)ccc(F)c1Cl [Crizotinib] (partner 1 µM) , thanks.
0.293

* * *

Recorded relative viability, one value per entry.
# Tested on: HCC-827
# protocol-text: relative viability (nuclei count vs DMSO), 5 days (fraction); higher = more cells survive
# experimental-conditions: first compound 0.04 µM
Answer with a number only.

COc1cc(N2CCC(C(N)=O)CC2)ccc1Nc1nc(N)c(Cl)c(Nc2ccccc2S(=O)(=O)C(C)C)n1 [HG-5-88-01] + CC(=O)Nc1cccc(-n2c(=O)n(C3CC3)c(=O)c3c(Nc4ccc(I)cc4F)n(C)c(=O)c(C)c32)c1 [Trametinib] (partner 0.02 µM): 0.529
Clc1ccc(Nc2nnc(Cc3ccncc3)c3ccccc23)cc1 [Vatalanib] + C[C@]1(O)C[C@@H](c2nc(-c3ccc4ccc(-c5ccccc5)nc4c3)c3c(N)nccn32)C1 [Linsitinib] (partner 1 µM): 0.992

// below: relative viability requested for another compound
# input compound: COc1cc(N2CCC(C(N)=O)CC2)ccc1Nc1nc(N)c(Cl)c(Nc2ccccc2S(=O)(=O)C(C)C)n1 [HG-5-88-01] + CS(=O)(=O)CCNCc1ccc(-c2ccc3ncnc(Nc4ccc(OCc5cccc(F)c5)c(Cl)c4)c3c2)o1 [Lapatinib] (partner 2 µM) ; wanted: its relative viability
0.202

* * *

# System: HCC-827
# protocol-text: relative viability (nuclei count vs DMSO), 5 days (fraction); higher = more cells survive
# experimental-conditions: first compound 0.04 µM
measurement-name: relative viability
No unit in the answer, only the number.

Use the examples below as a reference point.
Clc1ccc(Nc2nnc(Cc3ccncc3)c3ccccc23)cc1 [Vatalanib] + Cc1nc(Nc2ncc(C(=O)Nc3c(C)cccc3Cl)s2)cc(N2CCN(CCO)CC2)n1 [Dasatinib] (partner 0.075 µM): 0.375
COc1cc(N2CCC(C(N)=O)CC2)ccc1Nc1nc(N)c(Cl)c(Nc2ccccc2S(=O)(=O)C(C)C)n1 [HG-5-88-01] + Nc1nc2[nH]cc(CCc3ccc(C(=O)N[C@@H](CCC(=O)O)C(=O)O)cc3)c2c(=O)[nH]1 [Pemetrexed] (partner 0.2 µM): 0.24
C[C@@H]1CN(CC(=O)Nc2ccc3c(c2)Cc2cccc(-c4cc(=O)cc(N5CCOCC5)o4)c2S3)C[C@H](C)O1 + CS(=O)(=O)CCNCc1ccc(-c2ccc3ncnc(Nc4ccc(OCc5cccc(F)c5)c(Cl)c4)c3c2)o1 [Lapatinib] (partner 2 µM): 0.172

Moving on to another molecule below.
Value lookup for relative viability; key = Clc1ccc(Nc2nnc(Cc3ccncc3)c3ccccc23)cc1 [Vatalanib] + CC(C)C[C@H](NC(=O)[C@H](Cc1ccccc1)NC(=O)c1cnccn1)B(O)O [Bortezomib] (partner 0.002 µM)
1.04

* * *

# System: NCI-H1563
# protocol-text: relative viability (nuclei count vs DMSO), 5 days (fraction); higher = more cells survive
# experimental-conditions: first compound 0.1265 µM
measurement-name: relative viability
Number, no unit, nothing else.

Worked examples, 3 molecules total:
COc1cc(N2CCC(C(N)=O)CC2)ccc1Nc1nc(N)c(Cl)c(Nc2ccccc2S(=O)(=O)C(C)C)n1 [HG-5-88-01] + COc1cccc2cc(-c3nc([C@H]4CC[C@H](C(=O)O)CC4)n4ncnc(N)c34)[nH]c12 [OSI-027] (partner 0.5 µM): 0.754
C[C@@H]1CN(CC(=O)Nc2ccc3c(c2)Cc2cccc(-c4cc(=O)cc(N5CCOCC5)o4)c2S3)C[C@H](C)O1 + N=C(N)NC(=N)NCCc1ccccc1 [Phenformin] (partner 250 µM): 0.636
C[C@@H]1CN(CC(=O)Nc2ccc3c(c2)Cc2cccc(-c4cc(=O)cc(N5CCOCC5)o4)c2S3)C[C@H](C)O1 + C[C@@H](Oc1cc(-c2cnn(C3CCNCC3)c2)cnc1N)c1c(Cl)ccc(F)c1Cl [Crizotinib] (partner 1 µM): 0.849

What value of relative viability on NCI-H1563 does Clc1ccc(Nc2nnc(Cc3ccncc3)c3ccccc23)cc1 [Vatalanib] + CC(C)C[C@H](NC(=O)[C@H](Cc1ccccc1)NC(=O)c1cnccn1)B(O)O [Bortezomib] (partner 0.002 µM) have?
0.855

# returns recorded relative viability (system: NCI-H1563) for COc1cc(N2CCC(C(N)=O)CC2)ccc1Nc1nc(N)c(Cl)c(Nc2ccccc2S(=O)(=O)C(C)C)n1 [HG-5-88-01] + Nc1nc2[nH]cc(CCc3ccc(C(=O)N[C@@H](CCC(=O)O)C(=O)O)cc3)c2c(=O)[nH]1 [Pemetrexed] (partner 0.2 µM)
0.754

Record C[C@@H]1CN(CC(=O)Nc2ccc3c(c2)Cc2cccc(-c4cc(=O)cc(N5CCOCC5)o4)c2S3)C[C@H](C)O1 + Cc1nc(Nc2ncc(C(=O)Nc3c(C)cccc3Cl)s2)cc(N2CCN(CCO)CC2)n1 [Dasatinib] (partner 0.075 µM) : what is its relative viability with NCI-H1563?
0.429

State its relative viability on NCI-H1563: Clc1ccc(Nc2nnc(Cc3ccncc3)c3ccccc23)cc1 [Vatalanib] + C[C@@H](Oc1cc(-c2cnn(C3CCNCC3)c2)cnc1N)c1c(Cl)ccc(F)c1Cl [Crizotinib] (partner 1 µM)
0.754

Checklist item: relative viability tested on NCI-H1563, entry COc1cc(N2CCC(C(N)=O)CC2)ccc1Nc1nc(N)c(Cl)c(Nc2ccccc2S(=O)(=O)C(C)C)n1 [HG-5-88-01] + C[C@]1(O)C[C@@H](c2nc(-c3ccc4ccc(-c5ccccc5)nc4c3)c3c(N)nccn32)C1 [Linsitinib] (partner 1 µM) , value?
1.17

What relative viability appears in the records for this molecule with NCI-H1563? Clc1ccc(Nc2nnc(Cc3ccncc3)c3ccccc23)cc1 [Vatalanib] + Nc1nc2[nH]cc(CCc3ccc(C(=O)N[C@@H](CCC(=O)O)C(=O)O)cc3)c2c(=O)[nH]1 [Pemetrexed] (partner 0.2 µM)
0.772

Request - read-out relative viability | tested on NCI-H1563 | molecule Clc1ccc(Nc2nnc(Cc3ccncc3)c3ccccc23)cc1 [Vatalanib] + CS(=O)(=O)CCNCc1ccc(-c2ccc3ncnc(Nc4ccc(OCc5cccc(F)c5)c(Cl)c4)c3c2)o1 [Lapatinib] (partner 2 µM)
0.91

* * *

# System: NCI-H23
# protocol-text: relative viability (nuclei count vs DMSO), 5 days (fraction); higher = more cells survive
# experimental-conditions: first compound 0.3162 µM
compounds and their reported relative viability
Could you keep your reply to the number by itself?

Known results for compounds:
CC(C)Oc1cc(Nc2nc(N[C@@H](C)c3ccc(F)cn3)ncc2Cl)n[nH]1 [AZ23] + CS(=O)(=O)CCNCc1ccc(-c2ccc3ncnc(Nc4ccc(OCc5cccc(F)c5)c(Cl)c4)c3c2)o1 [Lapatinib] (partner 2 µM): 1.07
CC(C)Oc1cc(Nc2nc(N[C@@H](C)c3ccc(F)cn3)ncc2Cl)n[nH]1 [AZ23] + Nc1nc2[nH]cc(CCc3ccc(C(=O)N[C@@H](CCC(=O)O)C(=O)O)cc3)c2c(=O)[nH]1 [Pemetrexed] (partner 0.2 µM): 0.992
CC(C)Oc1cc(Nc2nc(N[C@@H](C)c3ccc(F)cn3)ncc2Cl)n[nH]1 [AZ23] + COc1cc2c(Oc3ccc(NC(=O)C4(C(=O)Nc5ccc(F)cc5)CC4)cc3F)ccnc2cc1OCCCN1CCOCC1 [Foretinib] (partner 0.25 µM): 0.596
CC(C)Oc1cc(Nc2nc(N[C@@H](C)c3ccc(F)cn3)ncc2Cl)n[nH]1 [AZ23] + Nc1ncn([C@H]2C[C@H](O)[C@@H](CO)O2)c(=O)n1 [Decitabine] (partner 2 µM): 0.274

What value of measured relative viability is listed for CC(C)Oc1cc(Nc2nc(N[C@@H](C)c3ccc(F)cn3)ncc2Cl)n[nH]1 [AZ23] + CCNC(=O)c1noc(-c2cc(C(C)C)c(O)cc2O)c1-c1ccc(CN2CCOCC2)cc1 [Luminespib] (partner 0.01 µM) ?
0.204
